# Tested on: Mycobacterium tuberculosis H37Rv (ATCC #27294)
# Protocol details: microbe, parasite or virus in culture
# Assay type: cell-based
# Setup conditions: 120 h, read-out: MTB MIC50
Bucketed by reported MIC50, buckets being interval 1 = under 2 µM, interval 2 = from 2 µM up to 6 µM, interval 3 = 6 µM and over

>  <Molecule>
O=c1[nH]c(Cc2ccccc2)cc(O)c1-c1ccccc1 [PD1]

>  <Study system>
Mycobacterium tuberculosis H37Rv (ATCC #27294)

>  <Classification>
interval 1

$$$$
>  <Molecule>
CC(C)(C)Cc1cc(O)c(-c2ccccc2)c(=O)[nH]1 [PD8]

>  <Study system>
Mycobacterium tuberculosis H37Rv (ATCC #27294)

>  <Classification>
interval 3

$$$$
>  <Molecule>
CC(C)Cc1cc(O)c(-c2cccc(Cl)c2)c(=O)[nH]1 [PD14]

>  <Study system>
Mycobacterium tuberculosis H37Rv (ATCC #27294)

>  <Classification>
interval 2

$$$$
>  <Molecule>
CC(C)Cc1[nH]c(=O)c(-c2ccccc2)c(O)c1C(N)=O [PD13]

>  <Study system>
Mycobacterium tuberculosis H37Rv (ATCC #27294)

>  <Classification>
interval 3

$$$$
>  <Molecule>
CC(C)Cc1cc(O)c(-c2ccccc2)c(=O)[nH]1 [PD12]

>  <Study system>
Mycobacterium tuberculosis H37Rv (ATCC #27294)

>  <Classification>
interval 1

$$$$
>  <Molecule>
CC(C)Cc1cc(O)c(-c2cccc(F)c2)c(=O)[nH]1 [PD18]

>  <Study system>
Mycobacterium tuberculosis H37Rv (ATCC #27294)

>  <Classification>
interval 2

$$$$
>  <Molecule>
CC1(C)CCC(Cc2cc(OCOP(=O)(O)O)c(-c3ccccc3)c(=O)[nH]2)CC1 [PD21]

>  <Study system>
Mycobacterium tuberculosis H37Rv (ATCC #27294)

>  <Classification>
interval 2

$$$$
>  <Molecule>
O=c1[nH]c(CC2CCC(F)(F)CC2)cc(O)c1-c1ccccc1 [PD9]

>  <Study system>
Mycobacterium tuberculosis H37Rv (ATCC #27294)

>  <Classification>
interval 1

$$$$
>  <Molecule>
CC1(C)CCC(Cc2cc(OP(=O)(O)O)c(-c3ccccc3)c(=O)[nH]2)CC1 [PD22]

>  <Study system>
Mycobacterium tuberculosis H37Rv (ATCC #27294)

>  <Classification>
interval 1

$$$$
>  <Molecule>
CC1(C)CCC(Cc2cc(O)c(-c3ccccc3)c(=O)[nH]2)CC1 [PD10]

>  <Study system>
Mycobacterium tuberculosis H37Rv (ATCC #27294)

>  <Classification>
interval 1

$$$$
>  <Molecule>
CC(C)CCc1cc(O)c(-c2ccccc2)c(=O)[nH]1 [PD7]

>  <Study system>
Mycobacterium tuberculosis H37Rv (ATCC #27294)

>  <Classification>
interval 1

$$$$
>  <Molecule>
O=c1[nH]c(CC2CC2)cc(O)c1-c1ccccc1 [PD3]

>  <Study system>
Mycobacterium tuberculosis H37Rv (ATCC #27294)

>  <Classification>
interval 2

$$$$
>  <Molecule>
O=c1[nH]c(CC2CCCCC2)cc(O)c1-c1ccccc1 [PD2]

>  <Study system>
Mycobacterium tuberculosis H37Rv (ATCC #27294)

>  <Classification>
interval 1

$$$$
>  <Molecule>
O=c1[nH]c(CC2CCOCC2)cc(O)c1-c1ccccc1 [PD6]

>  <Study system>
Mycobacterium tuberculosis H37Rv (ATCC #27294)

>  <Classification>
interval 3

$$$$
>  <Molecule>
CC(C)Cc1cc(O)c(-c2ccc(F)cc2F)c(=O)[nH]1 [PD17]

>  <Study system>
Mycobacterium tuberculosis H37Rv (ATCC #27294)

>  <Classification>
interval 3

$$$$
>  <Molecule>
O=c1[nH]c(CC2CCC2)cc(O)c1-c1ccccc1 [PD5]

>  <Study system>
Mycobacterium tuberculosis H37Rv (ATCC #27294)

>  <Classification>
interval 1

$$$$
>  <Molecule>
CC(C)Cc1cc(O)c(-c2ccccc2)c(=O)n1C [PD19]

>  <Study system>
Mycobacterium tuberculosis H37Rv (ATCC #27294)

>  <Classification>
interval 3

$$$$
>  <Molecule>
CC(C)Cc1cc(O)c(-c2ccc(F)cc2)c(=O)[nH]1 [PD15]

>  <Study system>
Mycobacterium tuberculosis H37Rv (ATCC #27294)

>  <Classification>
interval 3

$$$$
>  <Molecule>
O=c1[nH]c(CC2CCCC2)cc(O)c1-c1ccccc1 [PD4]

>  <Study system>
Mycobacterium tuberculosis H37Rv (ATCC #27294)

>  <Classification>
interval 1

$$$$
